# PROTOCOL_DESCRIPTION: Selectivity ratio of GI50 for human MRC5 cells to GI50 for human HMEC1 cells
# Type: ADME, cell-based
# CONDITIONS_USED: MRC5 cells and HMEC1 cells, read-out: RatioGI50
Please respond with reported selectivity ratio for every item in the list.

CCNCC(O)COc1ccc(C2=Cc3ccc(OCC(O)CNCC)cc3OC2)cc1 (racemic) ... 8.6
CN(C)CC(O)COc1ccc(C2=Cc3ccc(OCC(O)CN(C)C)cc3OC2)cc1 (racemic) ... 2.5

API: the following record is the query input.
For CCCCNCC(O)COc1ccc(C2=Cc3ccc(OCC(O)CNCCCC)cc3OC2)cc1 (racemic) the molecule record lists selectivity ratio as 4.2
